Origin of the recorded values: PubChem BioAssay (NCI)

Kindly state TGI for each of the entries shown.
tested on: PC-3 prostate; assay: NCI tumour cell line growth inhibition, 48 h
The figure you give is taken to be in µM; do not add the unit.

// field: TGI; key: `Cc1ccc(-n2cc(-c3ccc(Cl)cc3)c3c(N/N=C4\SCC(=O)N4C)ncnc32)cc1` ; value = 10.9

// field: TGI; key: `O=c1oc2ccc([N+](=O)[O-])cc2c(Nc2ccc3c(c2)Sc2ccccc2O3)c1[N+](=O)[O-]` ; value = 40.8

// field: TGI; key: CCOC(=O)C(CC(C)C)NC(=O)CSc1nnc(COc2ccc(Cl)cc2)n1-c1ccccc1 (centres undefined) ; value = 30.8

// field: TGI; key: `COC(=O)/C=C\C(C#N)(C#N)N=Cc1ccccc1` ; value = 13.1
